tested on: BT-549 breast; test: NCI-60 one-dose screen, 48 h (100 = growth as untreated, 0 = no growth, -100 = all killed); conditions: 10 µM unless noted
This is part of a sample that, as a whole, favours compounds with a hit. Of some 83,000 tested, about 20% had one in any assay.
Cut-off 80% on growth, inclusive. At or above means TRUE; below means FALSE.

Task: Tell me whether growth is at least 80% here: CCCCC#Cc1c(/C=C(\CCCC)SCC)n(C)c(=O)[nH]c1=O
Output: TRUE

Task: // query: C=C(C)[C@@H]1CC[C@]2(C)[C@H](CC(=O)N[C@H]3[C@@H]4C[C@](C)(C(=O)OC)CC[C@]4(C)CC[C@]32C)[C@@]1(C)CCC#N
Output: FALSE

Task: Now try CCCCCCNC(=O)Oc1ccc(/C(=C(/CC)Cc2ccccc2)c2ccc(OCCCN(C)C)cc2)cc1 .
Output: TRUE

Task: Same again, this time with CCCCCCCCN(CCCCCCCC)CC(O)c1cc(Cl)ccc1OC (stereo not given)
Output: TRUE

Task: What about this compound? O=C(/C=C/c1ccc([N+](=O)[O-])cc1)c1ccccc1
Output: TRUE

Task: Check O=C(Oc1ccc(CO[N+](=O)[O-])cc1)c1ccccc1 too.
Output: FALSE

Task: Next entry: N#CC(Cc1cccc2ccccc12)c1cc2ccccc2[nH]1 (stereo not given)
Output: TRUE

Task: Then what about the compound S=c1nc(CS)[nH]c2ccccc12 ?
Output: TRUE

Attribution: PubChem BioAssay (NCI)
